# EXPERIMENTAL_PROTOCOL: yeast display, Sf9 membrane polyspecificity reagent, FACS + sequencing; frameworks hold sequencing errors
ATTRIBUTE_MEASURED: polyreactivity (PSR sort gate)

[
  {
    "SEQUENCE_RECORD": "QVHLVESGGGLVQAGGSLRLSCAASGSIFSVNDMGWYRQAPGKERELVAAISSGGSTNYADSVKGRFTISRDNAKNTVSLQMNSLKPEDTAVYYCAADFYVVYWGTYSVGYDYWGQGTQVTVSS",
    "RESULT": "low polyreactivity"
  },
  {
    "SEQUENCE_RECORD": "QVQLQESGGGLVQAGGSLRLSCAASGSISADGAMGWYRQAPGKEREFAASVNWGTNTNYADSVKGRFTISRDNAKNTLYLQMNRLKPEDTAVYYCAVLPDWETRHDYWGHGTQVTVSS",
    "RESULT": "low polyreactivity"
  },
  {
    "SEQUENCE_RECORD": "QVQLVESGGGLVQAGGSLRLSCAASGSIFNYYAMGWYRQAPGKEREFVAAISWRGGSTYYADSVKGRFTISRDNAKNTVYLQMNRLKPEDTAVYYCNARVYGVYRRRVNYWGQGTQVTVSS",
    "RESULT": "high polyreactivity"
  },
  {
    "SEQUENCE_RECORD": "QVQLVESGGGLVQAGGSLRLSCAASGNTFTWYTMGWYRQAPGKERELVAVITSDGSTYYADSVKGRFTISRDNAKNTVDLQMNSLKPEDTAVYYCNALSADWYPEEDYWGQGTQVTVSS",
    "RESULT": "low polyreactivity"
  },
  {
    "SEQUENCE_RECORD": "QVQLVETGGGLVHAGGSLRLSCAASGSIFDAYAMGWYRQAPGKERELFASITSGGRTNYADSVKGRFTISRDNAKNTVYLQMNSLKPEDTAVYYCAKVRTRATPGLDYYYWGQGTQVTVSS",
    "RESULT": "high polyreactivity"
  },
  {
    "SEQUENCE_RECORD": "QVQLVESGGGLVQAGGSLRLSCAASGRTFKKYAMGWYRQAPGKERELVAAITGSGGSTYYADSVKGRFTISRDNAKNTVYLQMNILTPEDTAVYYCAAYAYGVWHSQDGGNYWGQCTQVTVSS",
    "RESULT": "low polyreactivity"
  }
]

# input So what's the measured polyreactivity (PSR sort gate) for this one? QVQLVESGGGIVQAGGSLRLSCAASGSIFSENTMGWYRQAPGKKRELVADITSGGSTNYADSVKGRFTISRDNAKNTVYLQMNSLKPEDTAVYYCNADWEAYKYNYWGQGTQVTVSS
# output low polyreactivity

# input So what's the measured polyreactivity (PSR sort gate) for this one? QVQLVESAGGLVQAGGSLSLSCAASGRIFTDYAMGWYRQAPGKERELVARISRSDGSTYYADSVKGRFSISRDNAKNNVYLQMNSLKAEDTAVYYCAAQWTDGRRDHWWDKGFYYWGLGTQVTVSS
# output low polyreactivity

Values were extracted from the nanobody polyreactivity screen of Harvey et al. (2022).
